Item-by-item account of GI50
System: HT1080 (human fibrosarcoma cells)
Experiment: MTT cancer cell growth inhibition
Assay type: cell-based
Conditions: Homo sapiens, HT-1080, 72 h, MTT, 72 hours incubation; read-out: GI50 HT1
Source text: MTT assay principle is yellow MTT can penetrate membrane into the cell, succinic dehydrogenase of the mitochondria in living cells can make exogenous MTT reduction of insoluble in water of blue-violet acicular formazan for crystallization and deposition in the cell, crystallization can be dissolved dimethyl sulfoxide (DMSO) solution, detected its absorbance at 490 nm/570 nm wavelength by enzyme-linked immunosorbent assay, which can reflect the number of cells. […] e) 570 nm readings. […]
Provide only the numeric value, understood in µM.

Below, each entry is followed by its recorded GI50 result.
[[record]]
smi = "C/C=C1\\NC(=O)c2nc(ccc2F)CNC(=O)C[C@@H](/C=C/CCS)OC(=O)[C@H](C(C)C)NC1=O"
unit_annotation = "µM"
reported_result = 0.03

[[record]]
smi = "C/C=C1\\NC(=O)c2ccc(F)c(n2)CNC(=O)C[C@@H](/C=C/CCS)OC(=O)[C@H](Cc2ccc(O)cc2)NC1=O"
unit_annotation = "µM"
reported_result = 0.1


# context switch: different compound, same GI50
Give its GI50 value. Item: C/C=C1\NC(=O)c2ccc(F)c(n2)CNC(=O)C[C@@H](/C=C/CCSC(=O)CCCCCCC)OC(=O)[C@H](C)NC1=O 0.08

* * *

molecular target: HDAC3 (Homo sapiens); test: HDAC biochemical activity measurement (fluorescent substrate deacetylation);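 note: fluorogenic acetyl-lysine substrate (20 µM) deacetylated by HDAC3, then developer added for 15 min at room temperature, release of fluorophore read at excitation 360 nm, emission 460 nm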; conditions: read-out: IC50 HDAC3; HDAC3; 37° C. 30 minutes
Sequence (O15379 whole entry, species assumed): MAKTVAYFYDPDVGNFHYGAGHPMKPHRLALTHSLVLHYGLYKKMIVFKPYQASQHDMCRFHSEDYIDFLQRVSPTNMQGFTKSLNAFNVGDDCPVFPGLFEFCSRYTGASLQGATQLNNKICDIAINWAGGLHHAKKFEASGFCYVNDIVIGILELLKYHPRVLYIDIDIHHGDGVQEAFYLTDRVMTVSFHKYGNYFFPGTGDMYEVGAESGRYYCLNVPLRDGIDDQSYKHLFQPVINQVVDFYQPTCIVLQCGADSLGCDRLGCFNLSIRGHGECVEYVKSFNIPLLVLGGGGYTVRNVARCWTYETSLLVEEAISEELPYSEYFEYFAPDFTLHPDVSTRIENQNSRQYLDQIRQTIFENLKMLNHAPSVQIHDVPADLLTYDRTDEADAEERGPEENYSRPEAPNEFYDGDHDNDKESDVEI
Sequence (Q9Y618 395-489 partner limits assumed, species assumed): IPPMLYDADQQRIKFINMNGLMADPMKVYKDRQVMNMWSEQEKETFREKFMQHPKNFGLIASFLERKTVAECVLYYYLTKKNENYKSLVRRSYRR
In plain terms, low IC50, meaning strictly below 50 nM, gives criterion met, and everything else gives criterion not met.

A selection of reference data follows.
[[record]]
smi = "C/C=C1\\NC(=O)c2nc(ccc2C)CNC(=O)C[C@@H](/C=C/CCSC(=O)CCCCCCC)OC(=O)[C@H](C(C)C)NC1=O"
label_value = "criterion met"

[[record]]
smi = "C/C=C1\\NC(=O)c2cccc(n2)CNC(=O)C[C@@H](/C=C/CCSC(=O)CCCCCCC)OC(=O)[C@H](C(C)C)NC1=O"
label_value = "criterion met"

[[record]]
smi = "C/C=C1\\NC(=O)c2nc(ccc2C)CNC(=O)C[C@@H](/C=C/CCSC(C)=O)OC(=O)[C@H](Cc2ccccc2)NC1=O"
label_value = "criterion met"

[[record]]
smi = "C/C=C1\\NC(=O)c2cc(F)cc(n2)CNC(=O)C[C@@H](/C=C/CCSC(=O)CCCCCCC)OC(=O)[C@H](CC)NC1=O"
label_value = "criterion met"

[[record]]
smi = "C/C=C1\\NC(=O)c2nc(ccc2F)CNC(=O)C[C@@H](/C=C/CCSC(=O)CCCCCC)OC(=O)[C@H](C(C)C)NC1=O"
label_value = "criterion met"


Hello, I'm reviewing records and need to know if IC50 of C/C=C1\NC(=O)c2cccc(n2)CNC(=O)C[C@@H](/C=C/CCSC(C)=O)OC(=O)[C@H](C(C)C)NC1=O is below 50 nM. Could you check? criterion met

Hello, I'm reviewing records and need to know if IC50 of C=C1NC(=O)c2cccc(n2)CNC(=O)C[C@@H](/C=C/CCSC(=O)CCCCCCC)OC(=O)[C@H](C(C)C)NC1=O is below 50 nM. Could you check? criterion met

Hello, I'm reviewing records and need to know if IC50 of C/C=C1\NC(=O)c2cccc(n2)CNC(=O)C[C@@H](/C=C/CCSC(=O)CCCCCCC)OC(=O)[C@H](c2ccc(O)cc2)NC1=O is below 50 nM. Could you check? criterion not met

Hello, I'm reviewing records and need to know if IC50 of C/C=C1\NC(=O)c2cccc(n2)CNC(=O)C[C@@H](/C=C/CCSC(=O)CCCC)OC(=O)[C@H](C(C)C)NC1=O is below 50 nM. Could you check? criterion not met

Hello, I'm reviewing records and need to know if IC50 of C/C=C1\NC(=O)c2nc(ccc2F)CNC(=O)C[C@@H](/C=C/CCSC(C)=O)OC(=O)[C@H](Cc2ccc(O)cc2)NC1=O is below 50 nM. Could you check? criterion met

Hello, I'm reviewing records and need to know if IC50 of C/C=C1\NC(=O)c2cccc(n2)CNC(=O)C[C@@H](/C=C/CCSC(C)=O)OC(=O)[C@H](Cc2ccccc2)NC1=O is below 50 nM. Could you check? criterion not met

Hello, I'm reviewing records and need to know if IC50 of C=C1NC(=O)c2nc(ccc2F)CNC(=O)C[C@@H](/C=C/CCSC(C)=O)OC(=O)[C@H](C(C)C)NC1=O is below 50 nM. Could you check? criterion met

Hello, I'm reviewing records and need to know if IC50 of C/C=C1\NC(=O)c2cc(F)cc(n2)CNC(=O)C[C@@H](/C=C/CCSC(=O)CCC)OC(=O)[C@H](C(C)C)NC1=O is below 50 nM. Could you check? criterion met
